Assay: Cytotoxicity against human A875 cells assessed as growth inhibition after 72 hrs by MTT assay
Format: functional, cell-based
Conditions: A875, 72 h
Below is a list of entries, each paired with its recorded IC50 value.

>  <chemicalSmiles>
COC(=O)c1cc2c([nH]c3ccccc32)c(C(=O)c2c[nH]c3ccccc23)n1

>  <unitLabel>
µM

>  <relationQualifier>
>

>  <IC50>
100

$$$$
>  <chemicalSmiles>
O=C(NCCc1ccc(F)cc1)c1cc2c([nH]c3ccccc32)c(C(=O)c2c[nH]c3ccccc23)n1

>  <unitLabel>
µM

>  <relationQualifier>
>

>  <IC50>
80

$$$$
>  <chemicalSmiles>
O=C(NCCc1cccc(O)c1)c1cc2c([nH]c3ccccc32)c(C(=O)c2c[nH]c3ccccc23)n1

>  <unitLabel>
µM

>  <relationQualifier>
=

>  <IC50>
11.9

$$$$
>  <chemicalSmiles>
O=C(NCCc1ccccc1)c1cc2c([nH]c3ccccc32)c(C(=O)c2c[nH]c3ccccc23)n1

>  <unitLabel>
µM

>  <relationQualifier>
=

>  <IC50>
44.8

$$$$
>  <chemicalSmiles>
O=C(Nc1ccc(F)cc1)c1cc2c([nH]c3ccccc32)c(C(=O)c2c[nH]c3ccccc23)n1

>  <unitLabel>
µM

>  <relationQualifier>
>

>  <IC50>
85

$$$$
>  <chemicalSmiles>
O=C(O)c1cc2c([nH]c3ccccc32)c(C(=O)c2c[nH]c3ccccc23)n1

>  <unitLabel>
µM

>  <relationQualifier>
=

>  <IC50>
48.8

$$$$
>  <chemicalSmiles>
O=C(NCc1ccc(F)cc1)c1cc2c([nH]c3ccccc32)c(C(=O)c2c[nH]c3ccccc23)n1

>  <unitLabel>
µM

>  <relationQualifier>
=

>  <IC50>
63.1

$$$$
>  <chemicalSmiles>
COc1ccc(CCNC(=O)c2cc3c([nH]c4ccccc43)c(C(=O)c3c[nH]c4ccccc34)n2)cc1OC

>  <unitLabel>
µM

>  <relationQualifier>
>

>  <IC50>
75

$$$$
>  <chemicalSmiles>
O=C(NCc1ccccn1)c1cc2c([nH]c3ccccc32)c(C(=O)c2c[nH]c3ccccc23)n1

>  <unitLabel>
µM

>  <relationQualifier>
=

>  <IC50>
42.5

$$$$
>  <chemicalSmiles>
Cc1ccc(CNC(=O)c2cc3c([nH]c4ccccc43)c(C(=O)c3c[nH]c4ccccc34)n2)cc1

>  <unitLabel>
µM

>  <relationQualifier>
>

>  <IC50>
85

$$$$
>  <chemicalSmiles>
O=C(c1c[nH]c2ccccc12)c1nccc2c1[nH]c1ccccc12

>  <unitLabel>
µM

>  <relationQualifier>
=

>  <IC50>
75.8

$$$$
>  <chemicalSmiles>
COc1cccc(CCNC(=O)c2cc3c([nH]c4ccccc43)c(C(=O)c3c[nH]c4ccccc34)n2)c1

>  <unitLabel>
µM

>  <relationQualifier>
>

>  <IC50>
80

$$$$

* * *

Test: Cytotoxicity against human A875 cells assessed as growth inhibition at 40 ug/mL after 72 hrs by MTT assay
Assay type: functional
Details: A875, 72 h, read-out: GI
Below is a list of entries, each paired with its recorded inhibition of growth at 40 µg/mL value.

>  <chemicalSmiles>
O=C(NCc1ccccc1)c1cc2c([nH]c3ccccc32)c(C(=O)c2c[nH]c3ccccc23)n1

>  <inhibition of growth at 40 µg/mL / %>
75.5

$$$$
>  <chemicalSmiles>
O=c1[nH]cc(F)c(=O)[nH]1

>  <inhibition of growth at 40 µg/mL / %>
61

$$$$
>  <chemicalSmiles>
O=C(NCCc1ccccc1)c1cc2c([nH]c3ccccc32)c(C(=O)c2c[nH]c3ccccc23)n1

>  <inhibition of growth at 40 µg/mL / %>
77.1

$$$$

* * *

Below is a list of entries, each paired with its recorded inhibition of growth at 40 µg/mL value.
System: HepG2
Test: Cytotoxicity against human HepG2 cells assessed as growth inhibition at 40 ug/mL after 72 hrs by MTT assay
Format: functional
Settings: HepG2, 72 h, read-out: GI
observable: inhibition of growth at 40 µg/mL (%)

>  <compound>
O=C(Nc1ccc(F)cc1)c1cc2c([nH]c3ccccc32)c(C(=O)c2c[nH]c3ccccc23)n1

>  <systemUnderTest>
HepG2

>  <unitLabel>
%

>  <testValue>
34.8

$$$$
>  <compound>
COC(=O)C(CO)NC(=O)c1cc2c([nH]c3ccccc32)c(C(=O)c2c[nH]c3ccccc23)n1 (stereo not drawn)

>  <systemUnderTest>
HepG2

>  <unitLabel>
%

>  <testValue>
79

$$$$
>  <compound>
CS(=O)(=O)CCNC(=O)c1cc2c([nH]c3ccccc32)c(C(=O)c2c[nH]c3ccccc23)n1

>  <systemUnderTest>
HepG2

>  <unitLabel>
%

>  <testValue>
87.3

$$$$
